TARGET_UNDER_TEST: T1, VEGF-D (recombinant human; source not given) (human, UniProt O43915 89-205, limits assumed)
T1 construct: also used here as target of IC50 values averaged over Source 1 and Source 2; also called vascular endothelial growth factor-D
T1 sequence: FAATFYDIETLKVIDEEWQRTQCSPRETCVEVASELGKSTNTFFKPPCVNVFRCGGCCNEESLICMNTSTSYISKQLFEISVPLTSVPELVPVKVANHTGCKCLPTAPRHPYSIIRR
MEASUREMENT_PROTOCOL: SPR (BIAcore) off-rate ranking of scFv clones
Protocol: Screening based on scFv binding properties involved surface plasmon resonance (SPR) measurements with a BIAcore™ biosensor. scFv variants were expressed in 200 μL E. coli cultures and the supernatants used to generate crude off-rate only kinetics, which were assessed “relative” to 1A, or other variants.
METRIC: koff (s⁻¹)
State just the number; it will be interpreted in s⁻¹.

// sample scFv clone G37 (scFv) scFv: QVRLVQSGAEVKQPGASVKVSCKASGYTFTGYNMYWVRQAPGQGLEWMGYIDPYNGDTTYNQKFKGRVTMTTDTSTSTAYMELRSLRSDDTAVYYCARTGYYGGMDYWGRGTLVTVASGGGASGGGGSGGGGSDIVMTQTPLSSPVTLGQPASISCRSSQSLVHSNGNTYLHWLQQRPGQPPRLLIYKVSNRFSGVPDRFSGSGAGTDFTLKISRVEAEDVGVYYCSQSTHVPRTFGQGTKLEIKR , its koff was 0.00586
